Hello, the source for this data is BindingDB's records for doi:10.1016/j.bmcl.2006.12.014, in case you need it.

Target: Cathepsin Z (Homo sapiens) (UniProt Q9UBR2)
Sequence (Q9UBR2 whole entry, looked up): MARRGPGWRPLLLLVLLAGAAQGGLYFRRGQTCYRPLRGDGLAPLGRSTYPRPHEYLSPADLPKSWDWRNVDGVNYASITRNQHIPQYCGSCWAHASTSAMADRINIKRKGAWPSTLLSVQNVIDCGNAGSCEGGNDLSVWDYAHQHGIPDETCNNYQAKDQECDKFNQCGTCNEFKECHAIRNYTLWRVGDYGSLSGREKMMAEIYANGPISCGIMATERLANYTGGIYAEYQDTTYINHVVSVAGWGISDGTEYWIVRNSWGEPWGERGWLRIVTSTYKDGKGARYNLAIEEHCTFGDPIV
Test: Inhibition of human recombinant cathepsin X
property.measured: pIC50
To interpret pIC50, take it as minus log10 of a concentration measured in moles per litre.

## Input Which pIC50 is reported for this molecule? CC(C)CO[C@H]1CCN2C[C@H]1OC2=O
## Output 5.96

## Input And what about the molecule S=C1O[C@@H]2CN1CC[C@@H]2Oc1ccccc1 ?
## Output 5.15

## Input And what about the molecule O=C1O[C@@H]2CN1CC[C@@H]2Oc1ccccc1 ?
## Output 6.49

## Input And what about the molecule O=C1O[C@@H]2CN1CC[C@@H]2OCc1ccccc1 ?
## Output 6.26

###

Please respond with reported IC50 for every item in the list.
Biological target: Cathepsin Z (Homo sapiens)
Assay: Inhibition of human recombinant cathepsin X
Output spec: scalar in nM, unitless text.

## Input Which IC50 is reported for this compound? Cc1cccc(O[C@H]2CCN3C[C@@H]2OC3=O)c1C (racemic)
## Output 553

## Input And what about the compound Cc1cccc(O[C@H]2CCN3C[C@H]2OC3=O)c1C (relative stereo) ?
## Output 197
